- assay_procedure: growth inhibition of non-replicating M. tuberculosis (AID 488890);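 further: plate controls were DMSO cells for no effect and high antibiotic wells for full effect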
- experimental_context: Mycobacterium tuberculosis non-replicating, at 25 µM, stronger effect = higher value
In all, about 320,000 compounds went through this assay and about 1,300 (0.41%) were called active. About 3% were inconclusive and are not listed. The list is a sample of the results. Measured potencies and affinities stand elsewhere.
quantity_name: inhibition (%)
Quick note: give the figure in %, leave out the unit.

[[record]]
compound_smiles = "COc1cc(NC(=O)COc2ccc(-n3ccnc3)cc2)cc(OC)c1"
quantity_name = "inhibition"
measured_result = 57.6

[[record]]
compound_smiles = "CCOCC(=O)Nc1ccc(Br)c(C)c1"
quantity_name = "inhibition"
measured_result = 78.4

[[record]]
compound_smiles = "COc1ccc(C2=NS(=O)(=O)N(C)C(C(=O)Nc3ccc(OC)c(OC)c3)=C2)cc1"
quantity_name = "inhibition"
measured_result = 17.6

[[record]]
compound_smiles = "Cc1ccc(NC(=O)COc2ccccc2C=O)cc1Cl"
quantity_name = "inhibition"
measured_result = 11.5

[[record]]
compound_smiles = "Cc1cc(-n2cnnn2)ccc1C(C)C"
quantity_name = "inhibition"
measured_result = 9.21


INPUT: Could you share which inhibition value was measured for `N=C(N)N=Nc1c(O)[nH]c2ccc(Br)cc12` ?
OUTPUT: 46

INPUT: Likewise for `COCC(=O)Nc1ccc(C)c(Cl)c1` ?
OUTPUT: 57.3

INPUT: Do the same for `Cc1ccc(NC(=O)COc2ccccc2C(=O)Nc2ccccc2)cc1Cl` please
OUTPUT: -4.97

INPUT: Try this compound next: `Cc1occc1C(=O)N=Nc1c(O)[nH]c2ccc(Br)cc12`
OUTPUT: -11.3

INPUT: Repeat with `CCc1ccc(-c2cc(C)no2)cc1S(=O)(=O)Nc1cc(C)ccn1`
OUTPUT: -1.42

INPUT: Please give the result for `O=C(COc1ccc(-n2ccnc2)cc1)Nc1cccc(F)c1` too.
OUTPUT: 62.5

INPUT: Another compound to check: `COc1ccc(Cl)cc1NC(=O)CN(C)C(=O)/C=C/c1ccco1`
OUTPUT: 25.2

* * *

- assay_procedure: growth inhibition of non-replicating M. tuberculosis (AID 488890);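 further: plate controls were DMSO cells for no effect and high antibiotic wells for full effect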
- experimental_context: Mycobacterium tuberculosis non-replicating, at 25 µM, stronger effect = higher value
Among all 320,000 compounds or so, about 1,300 (0.41%) were called active. Inconclusive results (about 3%) are left out. The list is a sample of the results. Entries with a potency or affinity are not part of this list.
quantity_name: inhibition (%)
Quick reminder: number only, in %, skip the unit.

[[record]]
compound = "COc1ccc(S(=O)(=O)N=Nc2c(O)[nH]c3ccccc23)cc1"
measured_result = 2.14

[[record]]
compound = "CCOc1cc2c(cc1OCC)C(c1ccc(F)cc1)NCC2 (stereo unspecified)"
measured_result = 19.2

[[record]]
compound = "N#Cc1c(-c2ccc(Cl)cc2)nc2n(c1=O)CCCS2"
measured_result = 4.51


INPUT: What does the record list as inhibition for Cc1ccc(OCC(O)CN2CCN(c3ccccn3)CC2)c(C)c1 (stereo unspecified) ?
OUTPUT: 41.5

INPUT: Thanks! And `NS(=O)(=O)c1ccc(NC(=O)Cn2nc(C(=O)O)c3ccccc3c2=O)cc1` ?
OUTPUT: 2.92

INPUT: Also, `COC(=O)c1ccc(NC(=O)c2ccccc2-c2ccccc2C(=O)O)cc1` please.
OUTPUT: 65.6

INPUT: Same question, `COc1ccc(-n2c(SCC(=O)O)nnc2-c2ccc(NC(=O)c3ccccc3)cc2)cc1` this time
OUTPUT: 9.48

INPUT: Then this compound: `CSc1nc(-c2ccco2)nn1C(=O)c1ccc(C)cc1`
OUTPUT: 8.76
